Listed here are compounds together with their documented IC50.
test system: THP-1 cells; assay: THP-1 cell assay: LPS-stimulated pSer78-Hsp27 ELISA; type: cell-based; details: Homo sapiens, PMA-differentiated THP-1 cells, compound 60 min before 20 ng/mL LPS for 30 min

// below: answered compounds
CN(C)CCN1CCN(c2ccc3c(c2)Cn2cc(-c4ccc(C#N)cc4)cc2-c2nccn2-3)C1=O :: < 50 nM
CN(CCO)CC1CCN(c2ccc3c(c2)Cn2cc(-c4ccc(C#N)cc4)cc2-c2nccn2-3)C1=O (stereo not shown) :: 50 to 100 nM
CN1CC(C)(CN2C(=O)CN(c3ccc4c(c3)Cn3cc(-c5ccc(C#N)cc5)cc3-c3nccn3-4)C2=O)C1 :: < 50 nM

We next turn to a different compound, shown below.
Give the reported IC50 for this compound. "CN(C)CCN1C(=O)CN(c2ccc3c(c2)Cn2cc(-c4ccc(C#N)cc4)cc2-c2nccn2-3)C1=O"
< 50 nM

Origin of measurements: patent US20240140958A1
